Target: T1, recombinant human Trop-2-his protein (ACCESSION NO.: NP_002344.2, AA 1-274) (human, UniProt P09758 27-274)
T1 construct: range 27-274; also called recombinant human Trop-2 protein; recombinant human Trop-2 extracellular domain; not shown: his tag
T1 sequence (looked up): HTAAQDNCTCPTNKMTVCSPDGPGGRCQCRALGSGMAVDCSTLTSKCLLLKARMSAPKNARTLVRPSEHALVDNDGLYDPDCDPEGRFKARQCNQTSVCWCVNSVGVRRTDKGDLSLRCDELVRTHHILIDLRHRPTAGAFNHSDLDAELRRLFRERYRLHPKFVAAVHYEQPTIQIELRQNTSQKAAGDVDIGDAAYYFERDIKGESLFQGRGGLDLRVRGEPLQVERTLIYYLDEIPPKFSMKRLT
Test: BLI, antibody on AHC sensor, Trop-2-his 60 nM
metric: Kd (pM)
All answers are understood in pM, so give the number only.

INSERT INTO measurements (binder, metric, obs_value) VALUES
  ('h4-3-2 (antibody, human IgG1, kappa, V domains shown) VH: EVQLVQSGPEVKKPGASVKVSCKASGFTFTDYVIGWVRQAPGQGLEWIGEIYLGSGTIYYAEKFKGRVTMTADTSTSTAYMELSSLRSEDTAVYYCARGSIFPFDYWGQGTLVTVSS VL: DIQLTQSPSSLSASVGDRVTITCSASSSVSYMYWYQQKPGKAPKLLIYDTSTLASGVPSRFSGSGSGTDFTLTISSLQPEDFATYYCQQWSSYPYTFGQGTKLEIKR', 'Kd', 411),
  ('h4-3-3 (antibody, human IgG1, kappa, V domains shown) VH: EVQLVQSGPEVKKPGASVKVSCKASGFTFTDYVIGWVRQAPGQGLEWIGEIYLGSGTIYYTQKFKGRVTMTADTSTSTAYMELSSLRSEDTAVYYCARGSIFPFDYWGQGTLVTVSS VL: DIQLTQSPSSLSASVGDRVTITCSASSSVSYMYWYQQKPGKAPKLLIYDTSTLASGVPSRFSGSGSGTDFTLTISSLQPEDFATYYCQQWSSYPYTFGQGTKLEIKR', 'Kd', 501),
  ('h4-3-12 (antibody, human IgG1, kappa, V domains shown) VH: EVQLVQSGPEVKKPGASVKVSCKASGFTFTDYVIGWVRQAPGQGLEWIGEIYLGSGTIYYTEKFKGRVTMTADTSTSTAYMELSSLRSEDTAVYYCARGSIFYFDYWGQGTLVTVSS VL: DIQLTQSPSSLSASVGDRVTITCSASSSVSYMYWYQQKPGKAPKLLIYDASTLASGVPSRFSGSGSGTDFTLTISSLQPEDFATYYCQQWSSYPYTFGQGTKLEIKR', 'Kd', 1030),
  ('h4-3-9 (antibody, human IgG1, kappa, V domains shown) VH: EVQLVQSGPEVKKPGASVKVSCKASGFTFTDYVIGWVRQAPGQGLEWIGEIYLGSGTIYYTEKFKGRVTMTADTSTSTAYMELSSLRSEDTAVYYCARGSIFPFDYWGQGTLVTVSS VL: DIQLTQSPSSLSASVGDRVTITCSASSSVSYMYWYQQKPGKAPKLLIYDASTLASGVPSRFSGSGSGTDFTLTISSLQPEDFATYYCQQWSSYPYTFGQGTKLEIKR', 'Kd', 317);

Next binder, please.
Which Kd value belongs to h4-3-5 (antibody, human IgG1, kappa, V domains shown) VH: EVQLVQSGPEVKKPGASVKVSCKASGFTFTDYVIGWVRQAPGQGLEWIGEIYLGSGTIYYTEKFKGRVTMTADTSTSTAYMELSSLRSEDTAVYYCARGSIFPFDYWGQGTLVTVSS VL: DIQLTQSPSSLSASVGDRVTITCRASSSVSYMYWYQQKPGKAPKLLIYDTSTLASGVPSRFSGSGSGTDFTLTISSLQPEDFATYYCQQWSSYPYTFGQGTKLEIKR ?
273
